B1: talin-1 head domain (THD1) [not stated] / ATTO 488-labelled β3-CT (488–β3-CT) [modified: ATTO 488 at the N terminus; ATTO 488 at the N terminus] [not stated] (parent)
chain 1: MVALSLKISIGNVVKTMQFEPSTMVYDACRMIRERIPEALAGPPNDFGLFLSDDDPKKGIWLEAGKALDYYMLRNGDTMEYRKKQRPLKIRMLDGTVKTIMVDDSKTVTDMLMTICARIGITNHDEYSLVRELMEEKKDEGTGTLRKDKTLLRDEKKMEKLKQKLHTDDELNWLDHGRTLREQGVEEHETLLLRRKFFYSDQNVDSRDPVQLNLLYVQARDDILNGSHPVSFDKACEFAGFQCQIQFGPHNEQKHKAGFLDLKDFLPKEYVKQKGERKIFQAHKNCGQMSEIEAKVRYVKLARSLKTYGVSFFLVKEKMKGKNKLVPRLLGITKECVMRVDEKTKEVIQEWSLTNIKRWAASPKSFTLDFGDYQDGYYSVQTTEGEQIAQLIAGYIDIILKKKKS
chain 2: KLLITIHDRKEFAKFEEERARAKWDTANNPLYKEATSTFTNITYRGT

Variants of: B1
testSummary: MST
particulars: with ATTO 488-labelled β3-CT (488–β3-CT) [modified: ATTO 488 at the N terminus, 30-40 µM KIND2, n = 2, read off a plot
quantityName: screen value

Some variants with known screen value results, for comparison:
chain 1 L400A :: 1.1
chain 1 K403E :: 0.57
chain 1 K402A K403A :: 0.7
chain 1 K402A :: 0.45
chain 1 I398A :: 0.65

a = chain 1 K403A
b = chain 1 K404A
Between a and b , which one has the lower reported screen value value? Give the label under which the chosen entry appears.
a
